Biological target: T1, DNTTIP1 (TdIF1), His-tagged (human, UniProt Q9H147 1-329)
T1 sequence: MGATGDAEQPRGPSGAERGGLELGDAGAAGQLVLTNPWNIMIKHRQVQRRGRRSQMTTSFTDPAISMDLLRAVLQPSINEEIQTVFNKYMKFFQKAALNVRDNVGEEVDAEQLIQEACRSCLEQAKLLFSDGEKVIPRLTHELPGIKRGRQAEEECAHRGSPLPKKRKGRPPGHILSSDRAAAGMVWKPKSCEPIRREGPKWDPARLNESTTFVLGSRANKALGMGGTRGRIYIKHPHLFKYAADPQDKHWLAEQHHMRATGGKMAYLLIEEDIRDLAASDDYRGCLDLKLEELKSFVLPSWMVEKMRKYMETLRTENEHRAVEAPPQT
Assay: equimolar DNA; Tm 39.2 C; unit inferred, M assumed; Anisotropy: 15 nM DNA, 10 mM Na-PO4 pH 6.5, 150 mM KCl, 250 uM TCEP, 5% glycerol. Pull-down: 20 mM HEPES pH 7.9, 100 mM KCl, 10% glycerol, 0.05% CHAPS, poly(dIdC), oligo B, acetylated BSA, room temperature
Details: protein: recombinant; tags: N-term 6xHis; chain copies: 2; label: fluorescein on first T of sense strand (anisotropy only); blunt
property_name: Kd

>  <binder>
ATCC_25 (dsDNA) DNA 1: AGATGATCCATATAAGGATATCCTT DNA 2: AAGGATATCCTTATATGGATCATCT

>  <result>
~791 nM

$$$$

The reported measurements were obtained from paper PMC11115230.
